Here's a batch of molecules along with measured pKi for Src (Homo sapiens, UniProt P12931).
Numbers only, as −log10 of the molar value.

I would be grateful if you could provide pKi for each of the following entries.
1. Cc1cccc(F)c1-c1cc(N[C@@H]2CCN(C)C2)c2cc(N)ncc2c1
2. Cc1cccc(Cl)c1-c1cc(NC2CCN(C)CC2)c2ccncc2c1
3. CNc1cc2c(NC3CCNCC3)cc(-c3c(C)cccc3F)cc2cn1
4. Cc1cccc(F)c1-c1cc(NC[C@H]2CCNC2)c2cc(N)ncc2c1
5. Cc1cccc(Cl)c1-c1ccc2c(C(=O)N[C@H]3CCN(C)C3)c(N)ncc2c1

7.45
6.98
6.66
6.66
6.50

I need pKi for every entry listed below, if you could help.
1. CN[C@@H]1CCN(c2cc(-c3c(C)cccc3F)cc3cnc(N)cc23)C1
2. Cc1cccc(F)c1-c1cc(N2CCC[C@@H](O)C2)c2cc(N)ncc2c1
3. Cc1cccc(Cl)c1-c1cc(NC2CCN(C)CC2)c2cc(N)ncc2c1

1: 6.49; 2: 5.73; 3: 6.51

* * *

log10(Ki) data for SIK2 (Homo sapiens, UniProt Q9H0K1) follow.
Response schema: value (number) is log10 of Ki in units of nM.

Solved entries:
compound	log10(Ki)
Cc1cccc(F)c1-c1cc(NC2CCCCC2)c2cc(N)ncc2c1 [Example 111]	1.92
Cc1cccc(F)c1-c1ccc2c(C(=O)NC3CN(C)C3)c(N)ncc2c1 [Example 89]	0.73
Cc1cccc(F)c1-c1cc(NC2CCN(C)CC2)c2nc(N)ncc2c1 [Example 132]	-1.40
Cc1cccc(Cl)c1-c1ccc2c(C(=O)NCC3CCNCC3)c(N)ncc2c1 [Example 40]	1.60
CN[C@@H]1CCCN(c2cc(-c3c(C)cccc3F)cc3cnc(N)cc23)C1 [Example 19]	-0.95
Cc1cccc(F)c1-c1cc(N[C@@H]2CCNC2)c2cc(N)ncc2c1 [Example 4]	-1.15

// for each compound below, give its log10(Ki)
1. Cc1cccc(Cl)c1-c1ccc2c(C(=O)NC3CNC3)c(N)ncc2c1 [Example 38]
2. CC(=O)Nc1cc2c(NC3CCN(C)CC3)cc(-c3c(C)cccc3F)cc2cn1 [Example 115]

1.05
-1.56

Recall the recorded log10(Ki) for Cc1cccc(F)c1-c1cc(C(=O)NC2CN(C)C2)c2cc(N)ncc2c1 [Example 100] with SIK2 (Homo sapiens, UniProt Q9H0K1) and state it.
Sequence (Q9H0K1 whole entry): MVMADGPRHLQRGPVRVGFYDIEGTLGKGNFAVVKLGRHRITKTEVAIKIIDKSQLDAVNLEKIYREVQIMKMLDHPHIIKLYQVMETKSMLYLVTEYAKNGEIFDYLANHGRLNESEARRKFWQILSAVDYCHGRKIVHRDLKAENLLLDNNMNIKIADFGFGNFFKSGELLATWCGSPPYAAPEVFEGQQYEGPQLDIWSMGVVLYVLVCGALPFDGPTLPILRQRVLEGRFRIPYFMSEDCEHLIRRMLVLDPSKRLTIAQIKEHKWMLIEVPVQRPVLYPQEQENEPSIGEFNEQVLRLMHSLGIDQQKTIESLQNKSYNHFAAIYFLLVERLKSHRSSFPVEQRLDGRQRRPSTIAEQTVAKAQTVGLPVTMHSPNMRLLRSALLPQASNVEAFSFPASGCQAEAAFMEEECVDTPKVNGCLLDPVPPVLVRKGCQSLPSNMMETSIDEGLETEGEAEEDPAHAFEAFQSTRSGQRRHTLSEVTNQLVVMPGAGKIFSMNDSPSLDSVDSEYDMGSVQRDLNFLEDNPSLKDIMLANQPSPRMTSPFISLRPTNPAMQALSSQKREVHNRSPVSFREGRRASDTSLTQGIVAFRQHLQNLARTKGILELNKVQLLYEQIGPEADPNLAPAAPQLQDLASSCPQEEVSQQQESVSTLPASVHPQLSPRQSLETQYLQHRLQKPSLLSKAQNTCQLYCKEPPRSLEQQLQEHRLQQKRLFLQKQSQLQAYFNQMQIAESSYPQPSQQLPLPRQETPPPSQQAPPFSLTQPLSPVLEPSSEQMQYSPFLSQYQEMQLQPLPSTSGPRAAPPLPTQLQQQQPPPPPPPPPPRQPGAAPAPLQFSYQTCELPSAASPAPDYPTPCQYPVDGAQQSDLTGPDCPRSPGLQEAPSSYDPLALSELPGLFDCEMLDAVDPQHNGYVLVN
0.64

* * *

Molecular target: SIK2 (Homo sapiens, UniProt Q9H0K1)
Ki strictly under 0.6 nM means Satisfied; at 0.6 nM or over means Not satisfied.

Here's what some known entries look like.
CN[C@H]1CCCN(c2cc(-c3c(C)cccc3F)cc3cnc(N)cc23)C1 Satisfied
Cc1cccc(F)c1-c1ccc2c(C(=O)N[C@@H]3CCN(C)C3)c(N)ncc2c1 Not satisfied
Cc1cccc(F)c1-c1cc(C(=O)NC2CCN(C)CC2)c2cc(N)ncc2c1 Not satisfied
Cc1cccc(F)c1-c1cc(N2CCC[C@H](N(C)C)C2)c2cc(N)ncc2c1 Satisfied
Cc1cccc(F)c1-c1cc(N[C@H]2CCCNC2)c2cc(N)ncc2c1 Satisfied

Now for a further compound.
API: query returns whether the compound falls strictly under 0.6 nM in Ki. Query: Cc1cccc(Cl)c1-c1cc(NC2CCN(C)CC2)c2cc(N)ncc2c1
Satisfied
